# assay_remarks: Ratio of drug concentration in spinal cord to plasma in Sprague-Dawley rat at 30 mg/kg, po measured at 5.25 hrs post dose
# Type: ADME, organism-based
metric: Kp at 5.25 h
Form: value (number only, do not type unit).

q: Tell me measured Kp at 5.25 h for CC(C)C[C@](C)(N)COc1ccc(-c2ccnc(C(F)F)c2)nc1C(F)F please.
a: 20

###

Entries and their pIC50 values follow.
# subject_of_test: AP2-associated protein kinase 1 (Homo sapiens)
# Sequence (Q2M2I8 whole entry): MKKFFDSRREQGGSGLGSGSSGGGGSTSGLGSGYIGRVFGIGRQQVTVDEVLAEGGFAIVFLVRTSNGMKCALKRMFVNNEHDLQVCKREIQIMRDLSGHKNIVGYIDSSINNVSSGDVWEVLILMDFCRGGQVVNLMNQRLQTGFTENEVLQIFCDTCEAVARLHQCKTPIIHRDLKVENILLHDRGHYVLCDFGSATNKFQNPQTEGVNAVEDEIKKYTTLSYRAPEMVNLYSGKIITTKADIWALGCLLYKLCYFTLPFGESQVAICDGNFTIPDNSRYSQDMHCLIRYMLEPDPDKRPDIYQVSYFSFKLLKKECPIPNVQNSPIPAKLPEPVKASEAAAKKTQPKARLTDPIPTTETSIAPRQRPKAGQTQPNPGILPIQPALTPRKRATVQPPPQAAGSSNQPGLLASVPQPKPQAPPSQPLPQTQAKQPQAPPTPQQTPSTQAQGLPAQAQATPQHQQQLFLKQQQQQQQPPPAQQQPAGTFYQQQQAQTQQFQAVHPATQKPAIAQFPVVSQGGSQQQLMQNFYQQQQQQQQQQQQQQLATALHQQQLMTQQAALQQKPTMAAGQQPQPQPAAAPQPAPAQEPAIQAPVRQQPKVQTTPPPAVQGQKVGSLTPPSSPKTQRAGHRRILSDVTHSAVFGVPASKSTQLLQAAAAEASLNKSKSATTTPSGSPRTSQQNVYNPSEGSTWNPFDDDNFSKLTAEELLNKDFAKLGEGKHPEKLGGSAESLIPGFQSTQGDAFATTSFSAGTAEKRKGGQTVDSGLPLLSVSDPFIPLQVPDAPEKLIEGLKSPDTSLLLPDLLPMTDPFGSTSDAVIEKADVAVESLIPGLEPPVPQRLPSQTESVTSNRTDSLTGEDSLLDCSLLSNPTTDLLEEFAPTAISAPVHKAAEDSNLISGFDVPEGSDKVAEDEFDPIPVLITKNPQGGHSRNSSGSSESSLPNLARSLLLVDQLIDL
# assay_remarks: Inhibition of […] in HEK293F cells assessed as reduction in phospho mu2 formation incubated for 3 hrs by Western blot analysis
# Format: cell-based
Remember, pIC50 is on a log scale: it is -log10 of the molar concentration.

[[record]]
given_smiles = "CC(C)C[C@](C)(N)COc1ccc(-c2ccnc(C(F)F)c2)cc1C(F)(F)F"
metric = "pIC50"
numeric_readout = 8.11

[[record]]
given_smiles = "CC(C)C[C@](C)(N)COc1ccc(-c2ccnc(C(F)F)c2)cc1C#N"
metric = "pIC50"
numeric_readout = 8.19

[[record]]
given_smiles = "Cc1cc(-c2ccc(OC[C@@](C)(N)CC(C)C)c(C(F)F)n2)ccn1"
metric = "pIC50"
numeric_readout = 7.96


// below: pIC50 requested for another compound
q: Quick one: give measured pIC50 for CC(C)C[C@](C)(N)COc1ncc(-c2ccnc(Cl)c2)cc1C(F)F
a: 8.04
